Molecular target: Neurogenic locus notch homolog protein 3 (Homo sapiens) (UniProt Q9UM47)
Sequence (Q9UM47 whole entry, looked up): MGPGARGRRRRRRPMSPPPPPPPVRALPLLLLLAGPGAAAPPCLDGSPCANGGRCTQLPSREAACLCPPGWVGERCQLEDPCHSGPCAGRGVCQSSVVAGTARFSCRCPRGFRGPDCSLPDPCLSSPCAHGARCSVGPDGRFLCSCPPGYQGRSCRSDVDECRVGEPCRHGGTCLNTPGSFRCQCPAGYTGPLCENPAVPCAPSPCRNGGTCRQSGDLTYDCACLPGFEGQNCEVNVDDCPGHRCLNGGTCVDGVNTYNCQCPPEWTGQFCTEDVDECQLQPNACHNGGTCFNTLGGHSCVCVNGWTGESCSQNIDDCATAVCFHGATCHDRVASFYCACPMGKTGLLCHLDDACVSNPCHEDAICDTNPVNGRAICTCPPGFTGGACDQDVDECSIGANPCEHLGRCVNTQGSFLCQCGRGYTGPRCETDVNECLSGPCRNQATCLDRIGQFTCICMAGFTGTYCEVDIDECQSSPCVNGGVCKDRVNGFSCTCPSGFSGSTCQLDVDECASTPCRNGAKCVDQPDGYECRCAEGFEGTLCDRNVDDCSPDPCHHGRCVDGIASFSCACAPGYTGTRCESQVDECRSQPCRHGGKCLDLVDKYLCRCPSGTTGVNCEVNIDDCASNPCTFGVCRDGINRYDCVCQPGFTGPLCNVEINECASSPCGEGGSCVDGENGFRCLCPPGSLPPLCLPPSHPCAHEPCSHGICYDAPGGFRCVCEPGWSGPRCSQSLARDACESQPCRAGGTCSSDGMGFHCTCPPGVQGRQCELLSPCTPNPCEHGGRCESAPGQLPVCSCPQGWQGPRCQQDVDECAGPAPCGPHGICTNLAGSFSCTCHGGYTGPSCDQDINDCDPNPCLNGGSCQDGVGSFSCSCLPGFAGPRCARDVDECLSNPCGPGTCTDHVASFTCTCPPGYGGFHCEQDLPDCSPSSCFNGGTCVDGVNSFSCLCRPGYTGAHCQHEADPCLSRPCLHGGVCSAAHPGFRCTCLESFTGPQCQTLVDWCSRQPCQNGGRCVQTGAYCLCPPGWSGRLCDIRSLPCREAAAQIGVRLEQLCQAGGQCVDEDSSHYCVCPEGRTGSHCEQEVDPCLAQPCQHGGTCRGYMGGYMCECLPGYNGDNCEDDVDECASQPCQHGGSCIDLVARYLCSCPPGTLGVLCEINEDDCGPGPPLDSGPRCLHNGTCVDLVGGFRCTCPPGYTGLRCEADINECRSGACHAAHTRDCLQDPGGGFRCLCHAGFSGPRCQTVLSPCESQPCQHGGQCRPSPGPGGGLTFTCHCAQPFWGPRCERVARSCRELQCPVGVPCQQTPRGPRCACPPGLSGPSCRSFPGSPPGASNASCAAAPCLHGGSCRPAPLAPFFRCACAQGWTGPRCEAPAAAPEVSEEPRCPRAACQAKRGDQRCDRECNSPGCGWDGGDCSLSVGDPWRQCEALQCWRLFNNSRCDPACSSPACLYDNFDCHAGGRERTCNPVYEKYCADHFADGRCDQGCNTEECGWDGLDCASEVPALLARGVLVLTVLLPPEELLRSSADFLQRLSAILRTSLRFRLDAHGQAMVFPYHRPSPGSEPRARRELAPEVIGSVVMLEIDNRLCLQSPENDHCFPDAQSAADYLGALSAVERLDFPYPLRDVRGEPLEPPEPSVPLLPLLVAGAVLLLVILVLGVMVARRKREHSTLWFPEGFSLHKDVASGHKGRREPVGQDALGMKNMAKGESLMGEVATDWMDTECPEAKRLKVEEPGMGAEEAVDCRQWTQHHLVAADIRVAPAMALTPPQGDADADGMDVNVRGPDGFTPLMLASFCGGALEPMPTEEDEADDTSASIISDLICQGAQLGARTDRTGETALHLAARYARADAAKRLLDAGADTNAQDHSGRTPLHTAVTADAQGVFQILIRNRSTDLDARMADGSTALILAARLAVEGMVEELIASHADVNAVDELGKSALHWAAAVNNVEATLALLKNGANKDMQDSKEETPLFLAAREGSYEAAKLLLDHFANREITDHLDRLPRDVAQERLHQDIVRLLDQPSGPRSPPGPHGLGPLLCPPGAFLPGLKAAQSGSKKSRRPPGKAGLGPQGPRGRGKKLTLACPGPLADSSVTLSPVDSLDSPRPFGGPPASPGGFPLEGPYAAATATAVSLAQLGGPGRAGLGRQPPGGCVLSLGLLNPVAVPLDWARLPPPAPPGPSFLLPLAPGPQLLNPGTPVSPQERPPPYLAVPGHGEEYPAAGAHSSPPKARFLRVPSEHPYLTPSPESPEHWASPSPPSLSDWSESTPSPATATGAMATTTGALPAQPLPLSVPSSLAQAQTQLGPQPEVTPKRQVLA
Assay: NOTCH3 binders on small-molecule microarray, primary screen, biochemical, 635/667 nm fluorescence (AID 1096)
Conditions: NOTCH3 binding, 635 nm fluorescence, higher = more signal
# if value of composite z-score reaches 0.5, tag fulfilled; if it stays below, tag not fulfilled

Assess whether reported composite z-score for C#CCCCON=C1C[C@@H](O)[C@@H](O)[C@@H]2[C@@H]3C(=O)N([C@@H](C)c4ccccc4)C(=O)[C@@H]3CC[C@H]12 sits at 0.5 or higher.
fulfilled

Assess whether reported composite z-score for O=C1[C@H]2[C@H]3[C@H](O)[C@H](O)CC(=NO[C@@H]4O[C@H](CO)[C@@H](O)[C@H](O)[C@H]4O)[C@H]3CC[C@H]2C(=O)N1Cc1ccc2c(c1)OCO2 sits at 0.5 or higher.
not fulfilled

Assess whether reported composite z-score for CC(C)CN1CCc2nc(-c3ccccc3)c3c(c2CC1)CO[C@@H](C)C3 sits at 0.5 or higher.
not fulfilled

Assess whether reported composite z-score for O=C(CS)NCCCCCNC(=O)[C@@H]1C[C@@H]2C(=O)N[C@@H](Cc3ccccc3)C(=O)N2[C@@H]1c1ccc(O)cc1 sits at 0.5 or higher.
not fulfilled

Assess whether reported composite z-score for COc1ccc(O[C@H]2C=C[C@@H](c3ccccc3)O[C@@H]2COC(=O)CCC(C)=NOC(C)CN2CCCCc3nc(C)c(C)cc32)cc1 (some centres undefined) sits at 0.5 or higher.
not fulfilled

Assess whether reported composite z-score for O=C1[C@H]2[C@H]3[C@H](O)[C@H](O)CC(=NO[C@@H]4O[C@H](CO)[C@@H](O)[C@H](O)[C@H]4O)[C@H]3CC[C@H]2C(=O)N1C1CCCCC1 sits at 0.5 or higher.
not fulfilled

Assess whether reported composite z-score for COCCCNC(=O)[C@@]1(CCS(=O)(=O)c2ccccc2)N=C(c2ccc(OCCCO)cc2)O[C@H]1c1ccccc1 sits at 0.5 or higher.
not fulfilled

Assess whether reported composite z-score for CCN(CC)c1ccc(N2CC=CC34O[C@@H]5/C=C\CCC(C)OC(=O)C5[C@H]3C(=O)N(CCCO)[C@@H]4C2=O)cc1 (some centres undefined) sits at 0.5 or higher.
not fulfilled

Assess whether reported composite z-score for COC(=O)[C@H](C)NC(=O)[C@@H](C)CO sits at 0.5 or higher.
fulfilled

Assess whether reported composite z-score for CCN1C(=O)[C@H]2[C@H]3[C@H](O)[C@H](O)CC(=NOCC=C(C)CCC=C(C)C)[C@H]3CC[C@H]2C1=O sits at 0.5 or higher.
fulfilled

Assess whether reported composite z-score for CCCC=C(CCC)[C@@H](NC(=O)c1ccc(-c2ccccc2)cc1)c1ccc(C(=O)OC)cc1 sits at 0.5 or higher.
fulfilled

Assess whether reported composite z-score for NCCCCCNC(=O)[C@@H]1C[C@@H]2C(=O)N3CCC[C@H]3C(=O)N2[C@@H]1c1cccc(OCCO)c1 sits at 0.5 or higher.
fulfilled

Assess whether reported composite z-score for CC(C)(C)N1C(=O)[C@H]2[C@H]3[C@H](O)[C@H](O)CC(=NOCc4ccccc4)[C@@H]3CC[C@H]2C1=O sits at 0.5 or higher.
fulfilled

Assess whether reported composite z-score for CCOC(=O)[C@H](Cc1ccccc1)NC(=O)CCC1CC(OC(=O)NCc2ccc3c(c2)OCO3)CC2(CCCC(COC(=O)NCC(c3ccccc3)c3ccccc3)O2)O1 (some centres undefined) sits at 0.5 or higher.
fulfilled

Assess whether reported composite z-score for C#C[C@@H](CC)O[Si](C#Cc1ccc(Oc2ccccc2)cc1)(C(C)C)C(C)C sits at 0.5 or higher.
fulfilled

Assess whether reported composite z-score for O=C1C[C@@H](O)[C@@H](O)[C@@H]2[C@@H]3C(=O)N(C4CCCCC4)C(=O)[C@@H]3CC[C@H]12 sits at 0.5 or higher.
fulfilled

Assess whether reported composite z-score for C#CCCCON=C1C[C@@H](O)[C@@H](O)[C@@H]2[C@@H]3C(=O)N(Cc4ccccc4)C(=O)[C@@H]3CC[C@H]12 sits at 0.5 or higher.
not fulfilled

Assess whether reported composite z-score for COCCOC(=O)N1C(=O)[C@@]2(c3cc(C#CCNC(N)=O)ccc31)[C@H](c1ccc(O)cc1)N1[C@H](c3ccccc3)[C@H](c3ccccc3)OC(=O)[C@H]1[C@@H]2C(=O)N1CCCCCCC1 sits at 0.5 or higher.
fulfilled

Assess whether reported composite z-score for CC(C)N1CC=CC23O[C@@H]4C=CCCOC(=O)C4[C@H]2C(=O)N(CCCCCCO)[C@@H]3C1=O (some centres undefined) sits at 0.5 or higher.
not fulfilled

Assess whether reported composite z-score for CCOC(=O)C[C@H]1[C@H](OC(=O)c2ccc(C(=O)c3ccccc3)cc2)[C@@H](NC(=O)c2ccc(-c3ccccc3)cc2)c2cc(OCCCO)ccc2N1C(=O)c1ccc2ccccc2n1 sits at 0.5 or higher.
fulfilled

Assess whether reported composite z-score for CO[C@@H]1COC(=O)CCC[C@@H](C)[C@H](OC)COC(=O)[C@H](Cc2ccccc2)NC(=O)CC=C[C@H]1C sits at 0.5 or higher.
not fulfilled

Assess whether reported composite z-score for CCCCC(=C=CC[C@H](O)c1ccccc1OCCO)C[C@H](O)COCc1ccccc1 sits at 0.5 or higher.
not fulfilled

Assess whether reported composite z-score for CCOC(=O)CCN1C(=O)[C@H]2[C@H]3[C@H](O)[C@H](O)CC(=NOC[C@@H](O)COCc4ccco4)[C@H]3CC[C@H]2C1=O sits at 0.5 or higher.
fulfilled

Assess whether reported composite z-score for O=C1[C@H]2[C@H]3[C@H](O)[C@H](O)CC(=NOCc4ccccc4)[C@H]3CC[C@H]2C(=O)N1C[C@@H]1CCCO1 sits at 0.5 or higher.
not fulfilled

Assess whether reported composite z-score for COCCNC(=O)OCC1CCCC2(CC(OC(=O)NCCc3ccc(F)cc3)CC(CCC(=O)N[C@@H](C)C(=O)OC)O2)O1 (some centres undefined) sits at 0.5 or higher.
fulfilled

Assess whether reported composite z-score for CC(C)c1ccc(NN2C(C(O)c3ccc4c(c3)OCO4)C=CC3C(=O)N(c4ccccc4)C(=O)C32)cc1 (centres undefined) sits at 0.5 or higher.
fulfilled

Assess whether reported composite z-score for O=C1[C@H]2[C@H]3[C@H](O)[C@H](O)CC(=NOCc4ccccc4)[C@H]3CC[C@H]2C(=O)N1c1ccc(F)cc1F sits at 0.5 or higher.
not fulfilled

Assess whether reported composite z-score for CC(C)=CCCC(C)=CCON=C1C[C@@H](O)[C@@H](O)[C@@H]2[C@@H]3C(=O)N(C[C@@H]4CCCO4)C(=O)[C@@H]3CC[C@@H]12 sits at 0.5 or higher.
fulfilled
